test target: KCNQ2/3 channels (Homo sapiens, UniProt O43525+O43526)
Construct: expressed in transfected cells
protocol description: Fluorescence assay using a voltage sensitive dye (fluorimetry)
Format: cell-based
settings: CHO-K1 cells expressing KCNQ2/3 channels; retigabine 50 μM = 100%; read-out: Fluorimetry % efficacy (retigabine 50 μM = 100%)
observed property: Emax

compound=O=C(NCc1ccc(F)cc1)c1cccnc1SCCC(F)(F)c1ccc(F)cc1 reported_measurement=114%
compound="CC(CCc1cccc(C(F)(F)F)c1)Sc1ncccc1C(=O)NCCC(C)(C)C (stereo not drawn)" reported_measurement=181%
compound=O=C(NCc1cccc(-c2ccncc2)c1)c1cccnc1SCCCc1ccc(F)cc1 reported_measurement=113%
compound=O=C(NCc1cccs1)c1cccnc1CCCSc1ccccc1 reported_measurement=163%
compound="O=C(NCC1CC2CCC1C2)c1cccnc1SCCCc1cccc(F)c1 (stereo not drawn)" reported_measurement=250%
compound=O=C(NCc1cccs1)c1cccnc1SCCC(F)(F)c1ccc(F)cc1 reported_measurement=159%
compound=O=C(NCc1ccc2cccnc2c1)c1cccnc1SCCCc1ccc(F)cc1 reported_measurement=96%
compound="O=C(NCC1CC2CCC1C2)c1cccnc1SCCCc1ccc(F)c(C(F)(F)F)c1 (stereo not drawn)" reported_measurement=240%
compound=O=C(NCc1ccc2c(c1)CCO2)c1cccnc1SCCCc1ccc(F)cc1 reported_measurement=85%
